Cited source for all entries: PubChem BioAssay (NCI)

Below, each entry is listed alongside its reported growth.
System: SK-OV-3 ovarian
assay.remarks: NCI-60 one-dose screen, 48 h (100 = growth as untreated, 0 = no growth, -100 = all killed)
conditions.used: 10 µM
About 83,000 compounds went through this panel and 20% of them were active in at least one assay; those are over-represented in the sample as a whole.
Could you give me the number in %? Just the number is fine.

Reference set, count: 5
COC(=O)/C=C1\Sc2cc(F)ccc2NC1=O :: 111
COc1cc2c(cc1OC)[C@H](C(=O)O)[C@@H](c1ccc(OC(C)C)c(OC)c1)N(C)C2=O :: 104
CC(=O)c1cc2c(cc1F)C(C)(C)CCC2(C)C :: 105
OC1OC(COC(c2ccccc2)(c2ccccc2)c2ccccc2)C(O)C(O)C1O (stereo not drawn) :: 99.9
CC(C)CCOC(=O)c1ccccc1 :: 104

Prompt line: Please provide the recorded growth for CCOC(=O)CSc1c([N+](=O)[O-])ncn1C , tested on SK-OV-3 ovarian.
Response line: 110

Prompt line: Please provide the recorded growth for CSc1[nH]c(=O)ncc1F , tested on SK-OV-3 ovarian.
Response line: 119

Prompt line: Please provide the recorded growth for CC(C)OC(=O)c1cc(NC(=S)OC(C)C)ccc1Cl , tested on SK-OV-3 ovarian.
Response line: 95.1

Prompt line: Please provide the recorded growth for CCOc1ccc(Br)cc1/C=N\N=C\c1cc(Br)ccc1OCC , tested on SK-OV-3 ovarian.
Response line: 117

Prompt line: Please provide the recorded growth for C=CCNc1nnc(C)s1 , tested on SK-OV-3 ovarian.
Response line: 115

Prompt line: Please provide the recorded growth for CC1(c2ccccc2)NC(=O)NC1=O (stereo not drawn) , tested on SK-OV-3 ovarian.
Response line: 107

Prompt line: Please provide the recorded growth for CC1CCC2C(C)(C)C3CC12CC1OC13C (stereo not drawn) , tested on SK-OV-3 ovarian.
Response line: 103

Prompt line: Please provide the recorded growth for Cc1cc2ccccc2c(O)c1C#N , tested on SK-OV-3 ovarian.
Response line: 89.4

Prompt line: Please provide the recorded growth for C/C(O)=C(\C=N\C(N)=S)C(=O)Nc1ccccc1 , tested on SK-OV-3 ovarian.
Response line: 100

Prompt line: Please provide the recorded growth for O=C(CCl)N1CCN(C/C=C/c2ccccc2)CC1 , tested on SK-OV-3 ovarian.
Response line: 99.7

Prompt line: Please provide the recorded growth for O=C(CN1CCNCC1)N1CCOCC1 , tested on SK-OV-3 ovarian.
Response line: 110

Prompt line: Please provide the recorded growth for O=c1cc(-c2ccccc2)oc2c1ccc1ccccc12 , tested on SK-OV-3 ovarian.
Response line: 88.2

Prompt line: Please provide the recorded growth for Cc1nc2c(ccc3ccccc32)s1 , tested on SK-OV-3 ovarian.
Response line: 107

Prompt line: Please provide the recorded growth for Cc1c(O)cccc1O , tested on SK-OV-3 ovarian.
Response line: 97.1

Prompt line: Please provide the recorded growth for CC1CCC(C(=O)O)N1 (stereo not drawn) , tested on SK-OV-3 ovarian.
Response line: 94.2

Prompt line: Please provide the recorded growth for CCOc1ccc(/C=C/C(=O)c2ccccc2)cc1 , tested on SK-OV-3 ovarian.
Response line: 103

Prompt line: Please provide the recorded growth for CC(=O)Nc1cccc(NC(C)=O)n1 , tested on SK-OV-3 ovarian.
Response line: 101

Prompt line: Please provide the recorded growth for Cc1cc(=O)cc(C)n1-c1ccccc1 , tested on SK-OV-3 ovarian.
Response line: 94.7

Prompt line: Please provide the recorded growth for Nc1ccc(CC(=O)O)c(N)c1 , tested on SK-OV-3 ovarian.
Response line: 93

Prompt line: Please provide the recorded growth for S=c1sc2ccccc2n1CN1CCCCC1 , tested on SK-OV-3 ovarian.
Response line: 94.5

Prompt line: Please provide the recorded growth for CNC(=O)c1ccccc1CC1(O)c2ccccc2Oc2ccccc21 , tested on SK-OV-3 ovarian.
Response line: 73.7

Prompt line: Please provide the recorded growth for S=C(Nc1ccccc1)N1CCCCC1 , tested on SK-OV-3 ovarian.
Response line: 107

Prompt line: Please provide the recorded growth for C[N+](C)=c1ccc2nc3c(cc(Nc4ccccc4)c4ccccc43)oc-2c1 , tested on SK-OV-3 ovarian.
Response line: 65.3
